Experiment: Stability of the compound in rat liver microsomes assessed as parent compound remaining at 0.5 uM measured after 10 mins in presence of NADPH by LC-MS/MS analysis
Assay type: ADME, Microsome
Settings: read-out: Stability

{"molecule": "Cc1nc2cc(-c3cccc(-c4ccccc4F)c3)nn2c(-c2cc(F)c3c(c2C)CCCO3)c1[C@H](OC(C)(C)C)C(=O)O", "remaining at 10 min, 0.5 µM (%)": 89}
{"molecule": "Cc1nc2cc(-c3cccc(OCc4ccccc4)c3)nn2c(N2CCC(C)(C)CC2)c1C(OC(C)(C)C)C(=O)O (stereo unspecified)", "remaining at 10 min, 0.5 µM (%)": 100}
{"molecule": "Cc1nc2cc(-c3cccc(Oc4ccccc4)c3)nn2c(-c2cc(F)c3c(c2C)CCCO3)c1C(OC(C)(C)C)C(=O)O (stereo unspecified)", "remaining at 10 min, 0.5 µM (%)": 97}
{"molecule": "Cc1nc2cc(-c3cccc(-c4ccccc4)c3)nn2c(-c2cc(F)c3c(c2C)CCCO3)c1[C@H](OC(C)(C)C)C(=O)O", "remaining at 10 min, 0.5 µM (%)": 96}
{"molecule": "Cc1ccccc1-c1cccc(-c2cc3nc(C)c([C@H](OC(C)(C)C)C(=O)O)c(-c4cc(F)c5c(c4C)CCCO5)n3n2)c1", "remaining at 10 min, 0.5 µM (%)": 97}
{"molecule": "Cc1nc2cc(-c3cccc(OCc4ccccc4)c3)nn2c(-c2cc(F)c3c(c2C)CCCO3)c1C(OC(C)(C)C)C(=O)O (stereo unspecified)", "remaining at 10 min, 0.5 µM (%)": 83}

---

Test system: Human immunodeficiency virus 1
Assay: Antiviral activity against HIV1 NL4-3 infected in human MT2 cells measured after 3 to 4 days by luciferase reporter gene assay
Format: functional, organism-based
Conditions: Human immunodeficiency virus 1, NL4-3, MT2
Readings of EC50 for the listed molecules

{"molecule": "Cc1nc2cc(-c3ccccc3)nn2c(-c2cc(F)c3c(c2C)CCCO3)c1[C@@H](OC(C)(C)C)C(=O)O", "studyTarget": "Human immunodeficiency virus 1", "unitText": "nM", "comparativeSign": "=", "EC50": 13000}
{"molecule": "Cc1nc2cc(-c3ccccc3)nn2c(N2CCCCCC2)c1C(OC(C)(C)C)C(=O)O (configuration not stated)", "studyTarget": "Human immunodeficiency virus 1", "unitText": "nM", "comparativeSign": "=", "EC50": 2300}
{"molecule": "Cc1nc2cc(-c3ccccc3)nn2c(-c2ccccc2)c1C(OC(C)(C)C)C(=O)O (configuration not stated)", "studyTarget": "Human immunodeficiency virus 1", "unitText": "nM", "comparativeSign": ">", "EC50": 40000}
{"molecule": "Cc1nc2cc(-c3cccc(OCc4ccccc4)c3)nn2c(-c2cc(F)c3c(c2C)CCCO3)c1C(OC(C)(C)C)C(=O)O (configuration not stated)", "studyTarget": "Human immunodeficiency virus 1", "unitText": "nM", "comparativeSign": "=", "EC50": 20}
{"molecule": "COc1ccc(-c2c(C(OC(C)(C)C)C(=O)O)c(C)nc3cc(-c4ccccc4)nn23)cc1 (configuration not stated)", "studyTarget": "Human immunodeficiency virus 1", "unitText": "nM", "comparativeSign": "=", "EC50": 1700}
{"molecule": "COc1cccc(-c2c(C(OC(C)(C)C)C(=O)O)c(C)nc3cc(-c4ccccc4)nn23)c1 (configuration not stated)", "studyTarget": "Human immunodeficiency virus 1", "unitText": "nM", "comparativeSign": ">", "EC50": 40000}
{"molecule": "Cc1ccc(Nc2c(C(OC(C)(C)C)C(=O)O)c(C)nc3cc(-c4ccccc4)nn23)cc1 (configuration not stated)", "studyTarget": "Human immunodeficiency virus 1", "unitText": "nM", "comparativeSign": ">", "EC50": 40000}
{"molecule": "Cc1nc2cc(-c3ccccc3)nn2c(N2CCC(C)(C)CC2)c1C(OC(C)(C)C)C(=O)O (configuration not stated)", "studyTarget": "Human immunodeficiency virus 1", "unitText": "nM", "comparativeSign": "=", "EC50": 550}
{"molecule": "COc1ccccc1-c1c(C(OC(C)(C)C)C(=O)O)c(C)nc2cc(-c3ccccc3)nn12 (configuration not stated)", "studyTarget": "Human immunodeficiency virus 1", "unitText": "nM", "comparativeSign": ">", "EC50": 40000}
{"molecule": "Cc1ccc(-c2c(C(O)C(=O)O)c(C)nc3cc(-c4ccccc4)nn23)cc1 (configuration not stated)", "studyTarget": "Human immunodeficiency virus 1", "unitText": "nM", "comparativeSign": ">", "EC50": 40000}
{"molecule": "Cc1ccc(-c2c(C(OC(C)(C)C)C(=O)O)c(C)nc3cc(-c4ccccc4)nn23)cc1 (configuration not stated)", "studyTarget": "Human immunodeficiency virus 1", "unitText": "nM", "comparativeSign": "=", "EC50": 620}
{"molecule": "Cc1cccc(-c2c(C(OC(C)(C)C)C(=O)O)c(C)nc3cc(-c4ccccc4)nn23)c1 (configuration not stated)", "studyTarget": "Human immunodeficiency virus 1", "unitText": "nM", "comparativeSign": ">", "EC50": 40000}
{"molecule": "Cc1nc2cc(-c3cccc(-c4ccccc4)c3)nn2c(-c2cc(F)c3c(c2C)CCCO3)c1[C@H](OC(C)(C)C)C(=O)O", "studyTarget": "Human immunodeficiency virus 1", "unitText": "nM", "comparativeSign": "=", "EC50": 6}
{"molecule": "Cc1nc2cc(-c3ccccc3)nn2c(C)c1C(OC(C)(C)C)C(=O)O (configuration not stated)", "studyTarget": "Human immunodeficiency virus 1", "unitText": "nM", "comparativeSign": ">", "EC50": 40000}
{"molecule": "Cc1nc2cc(-c3ccccc3)nn2c(-c2ccc3c(c2)CCCO3)c1C(OC(C)(C)C)C(=O)O (configuration not stated)", "studyTarget": "Human immunodeficiency virus 1", "unitText": "nM", "comparativeSign": "=", "EC50": 490}
{"molecule": "CC(C)(C)OC(C(=O)O)c1ccccc1-c1ccccc1 (configuration not stated)", "studyTarget": "Human immunodeficiency virus 1", "unitText": "nM", "comparativeSign": "=", "EC50": 16000}
{"molecule": "Cc1nc2cc(-c3ccccc3)nn2c(-c2cc(F)c3c(c2C)CCCO3)c1[C@H](OC(C)(C)C)C(=O)O", "studyTarget": "Human immunodeficiency virus 1", "unitText": "nM", "comparativeSign": "=", "EC50": 110}
